Test system: A673/TR/shEF
Assay: cell viability (LOESS-normalised, relative to median of negative controls) (log2 ratio); higher = more viable cells (less compound effect), active = hit call of the paper (over 3 MAD below the median)
Conditions: 2.5 µM; library screen: screen1; EWS-FLI1 expression: low (doxycycline-induced shRNA knockdown); treatment time: 72 h
Screen size: about 3,200 compounds; about 300 (9.4%) showed activity. The full list was thinned out, with actives kept by preference.
Reported cell viability (log2) values are given for each entry in this list.
Please give the numeric answer without any surrounding text.

Solved entries (count: 5):
CCCCOc1ccc(OCCCN2CCOCC2)cc1
0.0578
N/C(=N\S(=O)(=O)Cc1ccccc1)Nc1nc2ccccc2o1
0.031
CC(=O)Oc1c(Cl)c(C)c2c(c1Cl)OC(=O)c1c(C)c(Cl)c(OC(C)=O)c(Cl)c1O2
-0.0345
Cc1ccc(S(=O)(=O)/C=C/C#N)cc1
-0.123
O=S(=O)(c1cccc2c(I)cccc12)N1CCCNCC1
-0.111

Task item: Reported cell viability (log2), compound C=CC(C)(O)CC/C=C(\C)CCC=C(C)C (stereo not given) : ____
Reply: 0.113

Task item: Reported cell viability (log2), compound O=C1CSC(=O)N1CCN1C(=O)SC(=Cc2ccc(O)cc2)C1=O : ____
Reply: -0.00491

Task item: Reported cell viability (log2), compound CC[C@H](/C=C/[C@@H](C)[C@H]1CC[C@H]2[C@@H]3CCC4=CC(=O)CC[C@]4(C)[C@H]3CC[C@]12C)C(C)C : ____
Reply: -0.0817

Task item: Reported cell viability (log2), compound O=C(/C=C/c1ccc(O)cc1O)c1ccccc1 : ____
Reply: 0.0296

Task item: Reported cell viability (log2), compound C[C@@H]1CC[C@@]23CCC4(C)[C@@](C=CC5[C@@]6(C)CCC(=O)C(C)(C)C6CC[C@]54C)(OC2=O)C3[C@H]1C (stereo not given in full) : ____
Reply: 0.0141

Task item: Reported cell viability (log2), compound CC(C(=O)O)N1C(=O)C(=Cc2ccccn2)SC1=S (stereo not given) : ____
Reply: 0.106

Task item: Reported cell viability (log2), compound CC(C)[C@@H]1CC[C@@H](C)CC1=O : ____
Reply: 0.0792

Task item: Reported cell viability (log2), compound CCN1C(=O)/C(=C/c2c(N3CCN(C)CC3)nc3ccccn3c2=O)SC1=S : ____
Reply: 0.0777

###

System: A673/TR/shEF
Assay: cell viability (LOESS-normalised, relative to median of negative controls) (log2 ratio); higher = more viable cells (less compound effect), active = hit call of the paper (over 3 MAD below the median)
Conditions: 2.5 µM; library screen: screen1; EWS-FLI1 expression: high (no doxycycline); treatment time: 72 h
About 300 (9.4%) of roughly 3,200 compounds showed activity. The sample holds actives, similar compounds and a random draw of the others, so the mix is not that of the screen.
Binarize cell viability (log2) at 0.09; below is yes, at or above is no.

CC(=O)O[C@H]1C[C@@H](OC(C)=O)C(C)(C)C2C[C@@H](OC(C)=O)[C@@]3(C)C4=CC(=O)O[C@@H](c5ccoc5)[C@]4(C)CCC3[C@]21C (stereo partly drawn)
yes

Task item: Is the reported cell viability (log2) for CC(=O)O[C@H]1CC[C@@]2(C)C(C[C@@H](OC(C)=O)[C@@]3(C)C4=CC(=O)OC(c5ccoc5)[C@]4(C)CCC23)C1(C)C (stereo partly drawn) strictly below 0.09?
Reply: no

Task item: Is the reported cell viability (log2) for CCOC(=O)C1(O)Oc2cc(OC)cc(OC)c2C(=O)C1c1ccccc1 (stereo not drawn) strictly below 0.09?
Reply: no

Task item: Is the reported cell viability (log2) for CC(=O)O[C@@H]1CC[C@@]2(C)C(C[C@@H](OC(C)=O)[C@@]3(C)C4=CC(=O)O[C@@H](c5ccoc5)[C@]4(C)CCC23)C1(C)C (stereo partly drawn) strictly below 0.09?
Reply: no

Task item: Is the reported cell viability (log2) for CCSCCOC(=O)C1=C(C)NC2=C(C(=O)CC(C)(C)C2)C1c1coc2ccccc2c1=O (stereo not drawn) strictly below 0.09?
Reply: no

Task item: Is the reported cell viability (log2) for CC(=O)Oc1c(Cl)c(C)c2c(c1Cl)OC(=O)c1c(C)c(Cl)c(OC(C)=O)c(Cl)c1O2 strictly below 0.09?
Reply: yes

Task item: Is the reported cell viability (log2) for COc1ccc(CN2CCN(Cc3ccccc3C(F)(F)F)CC2)c(OC)c1OC strictly below 0.09?
Reply: yes
